assay: Mouse blood levels after oral administration; assay type: in vivo; settings: mouse, blood, po, 100 mg/kg, Example 3; PO 100 mg./kg.; 1 hr; Tween-CMC; average of two experiments; read-out: Blood Levels
QUANTITY_MEASURED: concentration at 1 h (ng/mL)
The figure you give is taken to be in ng/mL; do not add the unit.

Form field: reported concentration at 1 h of O=C(O)C1=C(CSc2cnn[nH]2)CS[C@@H]2[C@H](N3C(=O)[C@@H](c4ccc(O)cc4)NC3c3ccccc3S(=O)(=O)O)C(=O)N12 (stereo partly shown) [BL-S1055]
35700

====

experiment: Mouse blood levels after oral administration; type: in vivo; conditions: mouse, blood, po, 100 mg/kg, Example 3; PO 100 mg./kg.; 3.5 hr; Tween-CMC; average of two experiments; read-out: Blood Levels
QUANTITY_MEASURED: concentration at 3.5 h
Kindly report the value followed by its unit.

MOLECULE	concentration at 3.5 h
N[C@@H](C(=O)N[C@@H]1C(=O)N2C(C(=O)O)=C(CSc3cnn[nH]3)CS[C@H]12)c1ccc(O)cc1 [BL-S640, reference compound]	10100 ng/mL

We now examine a further molecule.
Suppose we examine the molecule O=C(O)C1=C(CSc2cnn[nH]2)CS[C@@H]2[C@H](N3C(=O)[C@@H](c4ccc(O)cc4)NC3c3ccccc3S(=O)(=O)O)C(=O)N12 (some centres unmarked) [BL-S1055] ; what concentration at 3.5 h value has been reported?
11300 ng/mL

====

assay: physchem
QUANTITY_MEASURED: degraded at 1 h

Which degraded at 1 h value is on record for O=C(O)C1=C(CSc2cnn[nH]2)CS[C@@H]2[C@H](N3C(=O)[C@@H](c4ccc(O)cc4)NC3c3ccccc3S(=O)(=O)O)C(=O)N12 (stereo partly shown) ?
70.5%

====

tested on: E. coli Juhl A15119; test: Antibiotic activity in nutrient broth (MIC); format: cell-based; details: Escherichia coli, JUHLA15119, inoculum 10^-4; derivatives adjusted for BL-S640 content; read-out: MIC
Quick reference: MIC of the listed items.
Field format: number, assumed µg/mL, no unit text.

COMPOUND	MIC [µg/mL]
O=C(O)C1=C(CSc2cnn[nH]2)CS[C@@H]2[C@H](N3C(=O)[C@@H](c4ccc(O)cc4)NC3c3ccccc3S(=O)(=O)O)C(=O)N12 (stereo partly shown) [BL-S1055]	1
O=C(O)C1=C(CSc2cnn[nH]2)CS[C@@H]2[C@H](N3C(=O)[C@@H](c4ccc(O)cc4)NC3c3ccc(S(=O)(=O)O)o3)C(=O)N12 (stereo partly shown) [BL-S1027]	1
N[C@@H](C(=O)N[C@@H]1C(=O)N2C(C(=O)O)=C(CSc3cnn[nH]3)CS[C@H]12)c1ccc(O)cc1 [BL-S640, reference compound]	1

As a next step, examine the compound that follows.
Given O=C(O)COc1ccccc1C1N[C@H](c2ccc(O)cc2)C(=O)N1[C@@H]1C(=O)N2C(C(=O)O)=C(CSc3cnn[nH]3)CS[C@H]12 (stereo partly shown) [BL-S1048] , state its recorded MIC.
0.5

====

experiment: Mouse blood levels after intramuscular administration; format: in vivo; conditions: mouse, blood, im, 10 mg/kg, Example 2; IM 10 mg./kg.; 0.25 hr; 0.01% phosphate buffer; 16 or 32 mice; read-out: Blood Levels
Collected concentration at 0.25 h values appear next to each entry.
Give the value in ng/mL but do not write ng/mL after it.

COMPOUND	QUANTITY_MEASURED	UNIT_OF_MEASUREMENT	OBSERVED_MEASUREMENT
O=C(O)C1=C(CSc2cnn[nH]2)CS[C@@H]2[C@H](N3C(=O)[C@@H](c4ccc(O)cc4)NC3c3ccc(S(=O)(=O)O)o3)C(=O)N12 (some centres unmarked) [BL-S1027]	concentration at 0.25 h	ng/mL	15400

// moving on: another record for concentration at 0.25 h
Name the recorded concentration at 0.25 h for O=C(O)COc1ccccc1C1N[C@H](c2ccc(O)cc2)C(=O)N1[C@@H]1C(=O)N2C(C(=O)O)=C(CSc3cnn[nH]3)CS[C@H]12 (some centres unmarked) [BL-S1048] .
14800

====

experiment: Mouse blood levels after oral administration; type: in vivo; settings: mouse, blood, po, 100 mg/kg, Example 3; PO 100 mg./kg.; 2 hr; Tween-CMC; average of two experiments; read-out: Blood Levels
QUANTITY_MEASURED: concentration at 2 h
Number plus unit, in that order.

>>> print(df.to_string())
                                   compound     quantity_measured  observed_measurement
0  N[C@@H](C(=O)N[C@@H]1C(=O)N2C(C(=O)O)=C(CSc3cnn[nH]3)CS[C@H]12)c1ccc(O)cc1 [BL-S640, reference compound]  concentration at 2 h           24000 ng/mL

# context switch: different compound, same concentration at 2 h
Recorded concentration at 2 h of O=C(O)C1=C(CSc2cnn[nH]2)CS[C@@H]2[C@H](N3C(=O)[C@@H](c4ccc(O)cc4)NC3c3ccccc3S(=O)(=O)O)C(=O)N12 (some centres unmarked) , please.
22000 ng/mL

====

assay: Urinary recovery after IM administration to rats; assay type: in vivo; conditions: rat, urine, 10 mg/kg, IM 10 mg./kg., 6-24 hr, read-out: Urinary Recovery, Percentage of Administered Dose Recovered
List of dose excreted at 24 h values.
Respond numerically; units are % and should not be typed.

                                   compound  observed_measurement
0  O=C(O)COc1ccccc1C1N[C@H](c2ccc(O)cc2)C(=O)N1[C@@H]1C(=O)N2C(C(=O)O)=C(CSc3cnn[nH]3)CS[C@H]12 (some centres unmarked)                     2

Given the entry O=C(O)C1=C(CSc2cnn[nH]2)CS[C@@H]2[C@H](N3C(=O)[C@@H](c4ccc(O)cc4)NC3c3ccc(S(=O)(=O)O)o3)C(=O)N12 (some centres unmarked) , report its measured dose excreted at 24 h.
1.7

====

tested on: S. aureus BX1633 A9606; test: Antibiotic activity in nutrient broth (MIC); format: cell-based; conditions: Staphylococcus aureus, BX1633A9606, inoculum 10^-2; derivatives adjusted for BL-S640 content; read-out: MIC
QUANTITY_MEASURED: MIC (µg/mL)
Record the value in µg/mL, omitting the unit from your answer.

>>> df
                                   compound  unit_of_measurement  observed_measurement
0  N[C@@H](C(=O)N[C@@H]1C(=O)N2C(C(=O)O)=C(CSc3cnn[nH]3)CS[C@H]12)c1ccc(O)cc1 [BL-S640, reference compound]                µg/mL                     4
1  O=C(O)COc1ccccc1C1N[C@H](c2ccc(O)cc2)C(=O)N1[C@@H]1C(=O)N2C(C(=O)O)=C(CSc3cnn[nH]3)CS[C@H]12 (stereo partly shown)                µg/mL                     2
2  O=C(O)C1=C(CSc2cnn[nH]2)CS[C@@H]2[C@H](N3C(=O)[C@@H](c4ccc(O)cc4)NC3c3ccccc3S(=O)(=O)O)C(=O)N12 (stereo partly shown)                µg/mL                     2

Below: the item to evaluate.
For O=C(O)C1=C(CSc2cnn[nH]2)CS[C@@H]2[C@H](N3C(=O)[C@@H](c4ccc(O)cc4)NC3c3ccc(S(=O)(=O)O)o3)C(=O)N12 (stereo partly shown) , what is its reported MIC?
4

====

molecules and their reported MIC
system: E. coli A9675; assay: Antibiotic activity in nutrient broth (MIC); assay type: cell-based; conditions: Escherichia coli, A9675, inoculum 10^-4; derivatives adjusted for BL-S640 content; read-out: MIC
Numbers only; they are read as µg/mL.

Would you kindly share the measured MIC for O=C(O)C1=C(CSc2cnn[nH]2)CS[C@@H]2[C@H](N3C(=O)[C@@H](c4ccc(O)cc4)NC3c3ccc(S(=O)(=O)O)o3)C(=O)N12 (stereo partly shown) [BL-S1027] ?
4

# input molecule: O=C(O)COc1ccccc1C1N[C@H](c2ccc(O)cc2)C(=O)N1[C@@H]1C(=O)N2C(C(=O)O)=C(CSc3cnn[nH]3)CS[C@H]12 (stereo partly shown) [BL-S1048] ; wanted: its MIC
2

// query MIC value for entry N[C@@H](C(=O)N[C@@H]1C(=O)N2C(C(=O)O)=C(CSc3cnn[nH]3)CS[C@H]12)c1ccc(O)cc1 [BL-S640, reference compound]
4

May I ask what MIC has been recorded for O=C(O)C1=C(CSc2cnn[nH]2)CS[C@@H]2[C@H](N3C(=O)[C@@H](c4ccc(O)cc4)NC3c3ccccc3S(=O)(=O)O)C(=O)N12 (stereo partly shown) [BL-S1055] ?
4

Where do the numbers come from? From patent US4026888A.
